Molecular target: T1, human LAG-3 on cells (HEK293-hLAG-3 stable cell line) (human, UniProt P18627 23-525)
T1 sequence: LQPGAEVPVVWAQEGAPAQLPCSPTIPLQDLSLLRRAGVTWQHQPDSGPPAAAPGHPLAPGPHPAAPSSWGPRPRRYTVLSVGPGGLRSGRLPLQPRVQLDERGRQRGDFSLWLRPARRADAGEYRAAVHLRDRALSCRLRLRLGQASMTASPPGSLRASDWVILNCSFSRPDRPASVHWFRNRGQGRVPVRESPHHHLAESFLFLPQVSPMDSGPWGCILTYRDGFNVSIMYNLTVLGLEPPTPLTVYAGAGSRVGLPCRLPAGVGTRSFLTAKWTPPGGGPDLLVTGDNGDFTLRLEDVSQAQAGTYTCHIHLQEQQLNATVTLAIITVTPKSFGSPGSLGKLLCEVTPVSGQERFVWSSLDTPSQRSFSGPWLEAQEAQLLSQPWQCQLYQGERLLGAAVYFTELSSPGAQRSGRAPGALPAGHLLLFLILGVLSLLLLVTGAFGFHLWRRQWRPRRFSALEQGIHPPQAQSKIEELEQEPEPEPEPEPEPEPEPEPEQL
Test: FACS, HEK293-hLAG-3, antibody 0.064 nM
OBSERVED PROPERTY: Mean fluorescence intensity
Enter a number only.

Query (binder): 556F6B8 mouse-human chimeric antibody (antibody, V domains shown, also called mAb123-556F6B8; 556F8B8) VH: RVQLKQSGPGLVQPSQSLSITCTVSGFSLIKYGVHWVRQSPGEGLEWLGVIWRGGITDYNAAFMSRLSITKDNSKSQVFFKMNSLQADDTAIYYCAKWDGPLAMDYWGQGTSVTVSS VL: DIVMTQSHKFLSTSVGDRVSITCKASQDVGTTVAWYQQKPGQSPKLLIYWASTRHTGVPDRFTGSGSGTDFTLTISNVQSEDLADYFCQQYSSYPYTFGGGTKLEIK ; field requested: Mean fluorescence intensity
6.5

Now this one: 409D4E10 mouse-human chimeric antibody (antibody, V domains shown, also called mAb112-409D4E10) VH: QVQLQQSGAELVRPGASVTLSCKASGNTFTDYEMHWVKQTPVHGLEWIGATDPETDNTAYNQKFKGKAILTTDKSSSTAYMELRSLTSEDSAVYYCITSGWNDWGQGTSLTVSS VL: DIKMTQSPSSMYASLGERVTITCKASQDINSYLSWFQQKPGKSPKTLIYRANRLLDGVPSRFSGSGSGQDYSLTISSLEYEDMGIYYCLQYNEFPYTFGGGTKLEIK
6.3

// provenance: patent US20210155689A1
